experiment: Selectivity ratio of EC50 for gamma-secretase-mediated mouse notch cleavage to EC50 for gamma-secretase-mediated amyloid beta40 production
READOUT_TYPE: Selectivity ratio

>  <COMPOUND_STRING>
CCC(CC)[C@H](NS(=O)(=O)c1ccc(Cl)s1)c1ccnn1Cc1ccc(OC)cc1

>  <Selectivity ratio>
24

$$$$

[1] COc1ccc(-n2nccc2[C@@H](NS(=O)(=O)c2ccc(Cl)s2)C(C)C)cc1
[2] CCC(CC)[C@H](NS(=O)(=O)c1ccc(Cl)s1)c1ccnn1Cc1ccc(O)cc1
[3] CC(C)[C@H](NS(=O)(=O)c1ccc(Cl)s1)c1ccnn1-c1ccc(O)cc1
[4] CCC(CC)[C@H](NS(=O)(=O)c1ccc(Cl)s1)c1ccnn1-c1ccc(OC)cc1
[5] Cc1ccc(-n2nccc2[C@@H](NS(=O)(=O)c2ccc(Cl)s2)C(C)C)cc1
Please list these compounds in decreasing order of Selectivity ratio. Order the labels as requested and give them as your answer.
5, 2, 1, 3, 4
(5: 39, 2: 20, 1: 11, 3: 6.9, 4: 4)

----------
assay: Inhibition of gamma-secretase assessed as increase in beta-C-terminal fragment level after 24 hrs by double sandwich ELISA
Active and inactive are the calls of the source. The calls are words filed in the database; no cut-off is given here.
READOUT_TYPE: Activity

>  <MOLECULE>
CCC(CC)C(NS(=O)(=O)c1ccc(Br)s1)c1ccnn1-c1ccccc1 (stereo not given)

>  <Activity>
Active

$$$$
>  <MOLECULE>
CCC(CC)[C@H](NS(=O)(=O)c1ccc(Cl)s1)c1ccnn1-c1ccc(OC)cc1

>  <Activity>
Active

$$$$
>  <MOLECULE>
CCC(CC)C(NS(=O)(=O)c1ccc(Cl)s1)c1ncnn1Cc1ccc(OC(F)(F)F)cc1 (stereo not given)

>  <Activity>
Active

$$$$
>  <MOLECULE>
Cc1ccc(-n2nccc2[C@@H](NS(=O)(=O)c2ccc(Cl)s2)C(C)C)cc1

>  <Activity>
Active

$$$$
>  <MOLECULE>
Cc1ccc(-n2nccc2C(NS(=O)(=O)c2ccc(Cl)s2)C(C)C)cc1 (stereo not given)

>  <Activity>
Active

$$$$

For `CCC(CC)[C@H](NS(=O)(=O)c1ccc(Cl)s1)c1ccnn1Cc1ccc(OC)cc1` , what is its reported Activity?
Active

CCC(CC)C(NS(=O)(=O)c1ccc(Cl)s1)c1ncnn1Cc1ccc(C)cc1 (stereo not given) , same question.
Active

Try CCC(CC)C(NS(=O)(=O)c1ccc(Cl)s1)c1ncnn1Cc1ccccc1 (stereo not given) next.
Active

Can you handle `COc1ccc(-n2nccc2[C@@H](NS(=O)(=O)c2ccc(Cl)s2)C(C)C)cc1` next?
Active

Thanks! And CCC(CC)C(NS(=O)(=O)c1ccc(Cl)s1)c1ccnn1-c1ccccc1 (stereo not given) ?
Active

----------
molecular target: Gamma-secretase; assay: Displacement of [3H](S)-5-chloro-N-(3-ethyl-1-hydroxypentan-2-yl)thiophene-2-sulfonamide from gamma secretase in human SH-SY5Y cells after 1 hr
READOUT_TYPE: pIC50
// pIC50: -log10(molar conc.)

Consider the compound `CCC(CC)[C@H](NS(=O)(=O)c1ccc(Cl)s1)c1ccnn1Cc1ccc(O)cc1` and give its measured pIC50.
6.81
